Test: reduced mouse 2C T cell binding to pMHC/ICAM-1 vesicles – MLPCN validation set, flow cytometry, LFA-1/ICAM-1 modulator project, pilot screen (AID 2523)
Conditions: 2C mouse CD8+ T cells, at 7 µM, stronger effect = lower value; measured here: CD8+/vesicle+ event percentage
Endpoint Name: double positive events (%)
Output spec: scalar in %, unitless text.

O[C@H]1COC2C1OC[C@@H]2O (stereo partly drawn); 58.3
COc1ccc(NC2=C(Cl)C(=O)N(c3ccccc3)C2=O)c(OC)c1; 60.1
O=C(/C=C/c1ccc2c(c1)OCCCO2)c1ccc2ccccc2c1O; 59.6
COc1cc(CNc2ccc(C)c(C)c2)cc(OC)c1OC; 60.3
O=C(/C=C/c1ccccc1)c1ccccc1; 68
COc1cc2c(cc1OC)CN(Cc1ccc(C)s1)CC2; 64.1
O=C(O)CCCCCN1C(=O)C(=O)/C(=C(/O)c2ccccc2)C1c1ccccc1 (stereo not drawn); 63.1

Kindly consider the entry below.
Ask: Report double positive events for CCOC(=O)N1c2ccccc2C=CC1OCC (stereo not drawn) please.
Result: 57
